Data provenance: PubChem BioAssay (NCI)

test system: KM12 colon; test: NCI-60 one-dose screen, 48 h (100 = growth as untreated, 0 = no growth, -100 = all killed); conditions: 10 µM unless noted
This is part of a sample that, as a whole, favours compounds with a hit. Of some 83,000 tested, about 20% had one in any assay.
value_kind: growth (%)
Write the answer as a number in %, unit excluded.

Q: Fill in growth for record COc1cc2nc(-c3ccc(-c4nn[nH]n4)cc3)[nH]c(=O)c2cc1OC
Ans: 126

Q: Return reported growth. Input compound: COc1cccc(-c2nc3occn3c2-c2ccnc(NCCCNS(=O)(=O)c3cccc(F)c3)n2)c1
Ans: 92.6

Q: Identify measured growth corresponding to O=C1CCCCCCCCC(O)C(O)CCCC(c2cccs2)O1 (centres undefined)
Ans: 100

Q: Answer with the recorded growth of CC(=O)O[C@H]1CC[C@@]2(C)[C@@H](CC[C@@H]3[C@@H]2CC[C@@]2(C)[C@H]3CC[C@]2(O)C(C)=O)C1 only.
Ans: 107

Q: Tell me its growth given Clc1ccc(N2N=C(c3cccc(Nc4ccncc4)c3)CC2c2ccc3c(c2)OCO3)cc1 (centres undefined) as the entry.
Ans: 2.3
